# MEASURED TARGET: T1, mouse Ang2 (construct not stated) (mouse, UniProt O35608 19-496, limits assumed)
# T1 construct: also called mAng2
# T1 sequence (looked up): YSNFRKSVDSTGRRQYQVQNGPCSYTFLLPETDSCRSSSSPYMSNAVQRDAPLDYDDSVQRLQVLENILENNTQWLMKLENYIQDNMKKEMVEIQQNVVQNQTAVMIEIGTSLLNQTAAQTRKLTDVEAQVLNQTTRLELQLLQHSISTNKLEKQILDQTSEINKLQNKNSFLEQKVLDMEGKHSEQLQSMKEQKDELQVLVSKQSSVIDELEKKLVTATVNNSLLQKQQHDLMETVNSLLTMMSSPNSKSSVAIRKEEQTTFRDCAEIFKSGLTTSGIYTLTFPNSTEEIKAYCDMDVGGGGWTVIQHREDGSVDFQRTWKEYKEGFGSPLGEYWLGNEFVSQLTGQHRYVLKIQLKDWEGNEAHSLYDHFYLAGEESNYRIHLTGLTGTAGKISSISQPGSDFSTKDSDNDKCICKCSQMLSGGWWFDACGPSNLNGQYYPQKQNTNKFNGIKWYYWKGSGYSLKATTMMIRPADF
# ASSAY PROTOCOL: SPR Biacore T200, antibody captured on protein A chip, Ang2 as analyte, 1:1 model
# Experimental: To analyze the binding affinity of the selected anti-Ang2 antibodies, affinity analysis for human Ang2 and mouse Ang2 was performed using BIACORE® T200 (GE Healthcare). […] The analysis proceeded at a flow rate of 30 μl/min, the binding and dissociation time of human Ang2 was measured as 300 seconds and 2000 seconds, respectively, and the binding and dissociation time of mouse Ang2 was analyzed as 300 seconds and 1000 seconds, respectively. […]
Listed here are binders together with their documented koff.
State the answer as a number, implicitly in s⁻¹.

No. 41 anti-Ang2 antibody (IgG) (antibody, V domains shown, IgG form: VH cloned into Invivogen pfusess-hchg1, VL into Invivogen pfuse2ss-hclk; also called 2B2) VH: QVQLVESGGGLVQPGGSLRLSCEASGFAFGRYEMNWVRQAPGKGLEWIAYIDTGGGAKVYADSVKGRFTISRDDSKNSLYLQMNSLRAEDTAVYYCTTEGLMNGLHFDMWGQGTMITVSS VL: DIQMTQSPSTLSASVGDRVAITCRASQAISTWLAWYQQKPGKAPKLLIYTASTLESGVPSRFSGSGSGTDFTLTINSLQPDDFATYYCQQLNSYPYTFGGGTKVEIKR :: 9.47e-05

Switching to the query record.
Entry No. 4 anti-Ang2 antibody (IgG) (antibody, V domains shown, IgG form: VH cloned into Invivogen pfusess-hchg1, VL into Invivogen pfuse2ss-hclk; also called 2D8) VH: QVQLVESGAEVKRPGESLRISCKTSGYSFTSYWIHWVRQMPGKELEWMGSIYPGNSDTRYSPSFQGHVTISADSSSSTAYLQWSSLKASDTAMYYCTTEGLMNGLHFDMWGQGTMVTVSS VL: DIVMTQTPLSLPVTPGEPASISCRSSQSLLHSLGDNYLDWYLQKPGQSPQLLIYLGSKRAAGVPDRFSGSGSGTDFTLKISRVEAEDVGVYYCMQSLQTPPYTFGQGTKLEIKR — recorded koff = 7.05e-05
